Listed here are molecules together with their documented T1/2.
Molecular target: Gastric triacylglycerol lipase (Canis lupus familiaris)
Assay: Inhibition of recombinant DGL expressed in transgenic maize assessed as half inactivation time at 20 molar excess in presence of NaTDC
Express your answer in min, writing the number without its unit.

COc1nn(-c2cccc(Oc3ccccc3)c2)c(=O)o1; 1.88
COc1nn(-c2ccc(Oc3ccccc3)cc2)c(=O)o1; 9.31

Let us move to another entry and its T1/2.
INPUT: Please indicate T1/2 recorded for CCCCCCCCCCC[C@@H](C[C@@H]1OC(=O)[C@H]1CCCCCC)OC(=O)[C@H](CC(C)C)NC=O
OUTPUT: 0.59

====

Molecular target: Pancreatic triacylglycerol lipase (Sus scrofa) (UniProt P00591)
Sequence (P00591 whole entry): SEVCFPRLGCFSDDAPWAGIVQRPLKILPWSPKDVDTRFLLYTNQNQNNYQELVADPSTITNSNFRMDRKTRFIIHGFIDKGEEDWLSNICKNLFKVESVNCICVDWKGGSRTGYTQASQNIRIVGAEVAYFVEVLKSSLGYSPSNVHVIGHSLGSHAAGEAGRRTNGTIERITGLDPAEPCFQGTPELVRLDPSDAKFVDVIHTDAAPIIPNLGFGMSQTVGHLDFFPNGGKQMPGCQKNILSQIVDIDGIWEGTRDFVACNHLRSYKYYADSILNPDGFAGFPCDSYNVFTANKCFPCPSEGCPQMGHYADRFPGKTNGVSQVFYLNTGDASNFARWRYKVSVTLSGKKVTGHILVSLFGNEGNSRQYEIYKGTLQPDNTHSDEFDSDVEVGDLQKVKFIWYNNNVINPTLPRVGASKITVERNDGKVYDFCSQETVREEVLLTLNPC
Assay: Inhibition of PPL assessed as half inactivation time at 100 molar excess in presence of NaTDC
Listed here are molecules together with their documented T1/2.
Express your answer in min, writing the number without its unit.

Reference set (2 entries):
COc1nn(-c2ccc(Oc3ccccc3)cc2)c(=O)o1; 1.84
CCCCCCCCCCC[C@@H](C[C@@H]1OC(=O)[C@H]1CCCCCC)OC(=O)[C@H](CC(C)C)NC=O; 1.66

Let us move to another entry and its T1/2.
INPUT: Jot down T1/2 (Pancreatic triacylglycerol lipase (Sus scrofa) (UniProt P00591)) of COc1nn(-c2cccc(Oc3ccccc3)c2)c(=O)o1 .
OUTPUT: 1.69
